Would you mind telling me the reported phenotypically active of each entry?
system: WPMY1-GM130-SQSTM1; test: phenotypically active (imaging signature differs from DMSO and reproducible) at any of 0.3-9 uM (binary (1 = active, 0 = inactive)); higher = active; conditions: treatment time: 24 h
Answers are plain numbers.

COMPOUND: CC/C(=C(\CC)c1ccc(O)c(CN(CC)CC)c1)c1ccc(O)c(CN(CC)CC)c1
phenotypically active: 1

Answer for every listed entry: what is its phenotypically active? The entries follow.
1. Cc1ccc(O)c([C@H](CCN(C(C)C)C(C)C)c2ccccc2)c1 [Tolterodine L-tartrate]
2. CC(C)n1c(/C=C/[C@@H](O)C[C@@H](O)CC(=O)O)c(-c2ccc(F)cc2)c2ccccc21.CC(C)n1c(/C=C/[C@H](O)C[C@H](O)CC(=O)O)c(-c2ccc(F)cc2)c2ccccc21 [Fluvastatin sodium]

1
1

Please state phenotypically active for every compound in the list that follows.
1. CS(=O)(=O)c1cccc(CNc2nc(Nc3ccc4c(c3)CCC(=O)N4)ncc2C(F)(F)F)c1
2. C[C@@H]1CN(CC(=O)Nc2ccc3c(c2)Cc2cccc(-c4cc(=O)cc(N5CCOCC5)o4)c2S3)C[C@H](C)O1
3. Cc1cc(C(C)Nc2ccccc2)c2nc(N3CCOCC3)cc(=O)n2c1 (stereo not drawn)
4. NS(=O)(=O)Cc1noc2ccccc12 [zonisamide]
5. Cc1c(-c2ccccc2)oc2c(C(=O)OCCN3CCCCC3)cccc2c1=O [flavoxate]

[1, 1, 1, 0, 0]

---

Would you mind telling me the reported lowest phenotypically active concentration of each entry?
test system: WPMY1-GM130-SQSTM1; assay: lowest phenotypically active concentration; higher = less potent; settings: treatment time: 24 h
Answers are plain numbers, in µM.

Reference set, count: 5
COMPOUND: CCOC(=O)c1c(CSc2ccccc2)n(C)c2cc(Br)c(O)c(CN(C)C)c12
SYSTEM: WPMY1-GM130-SQSTM1
REPORTED: 9
//
COMPOUND: CC(C)NCC(O)COc1ccc(CC(N)=O)cc1 (stereo unspecified)
SYSTEM: WPMY1-GM130-SQSTM1
REPORTED: 9
//
COMPOUND: O=C1NCCCc2c1oc1ccc(O)cc21
SYSTEM: WPMY1-GM130-SQSTM1
REPORTED: 9
//
COMPOUND: CNCCCN1c2ccccc2CCc2ccccc21
SYSTEM: WPMY1-GM130-SQSTM1
REPORTED: 9
//
COMPOUND: Nc1nccc(-c2ccc3noc(-c4ccc(Cl)cc4)c3c2)n1
SYSTEM: WPMY1-GM130-SQSTM1
REPORTED: 9

Batch lookup, lowest phenotypically active concentration per entry.
1. CC(C)(C)Nc1nc(Nc2ccc(C(N)=O)cc2)cc(N)c1C#N
2. CCN(CCO)CCCC(C)Nc1ccnc2cc(Cl)ccc12 (stereo unspecified) [hydroxychloroquine]
3. COc1ccc(CCc2nc3cc(-c4c(C)noc4C)ccc3n2C[C@H](C)N2CCOCC2)cc1Cl
4. CN1CCN(C2=Nc3cc(Cl)ccc3Nc3ccccc32)CC1

[3, 9, 9, 9]

Below are 2 compounds. Give each one its lowest phenotypically active concentration.
1. Cc1ccc(S(=O)(=O)/C=C/C#N)cc1
2. O=C(NOC[C@H](O)CO)c1ccc(F)c(F)c1Nc1ccc(I)cc1F

1: 9; 2: 3

---

system: A549-TP53BP1-CLTA; assay: lowest phenotypically active concentration; higher = less potent; conditions: treatment time: 24 h
What lowest phenotypically active concentration was measured for each of the following?
Give bare numbers, in µM.

These solved cases illustrate the format of a correct answer.
COMPOUND: CC1(C)CC(=O)C2=C(C1)NC(=S)NC2c1cccc(O)c1 (stereo not drawn)
REPORTED: 3
//
COMPOUND: CO[C@H]1C[C@@H]2CC[C@@H](C)[C@@](O)(O2)C(=O)C(=O)N2CCCC[C@H]2C(=O)O[C@H]([C@H](C)C[C@@H]2CC[C@@H](OC(=O)C(C)(CO)CO)[C@H](OC)C2)CC(=O)[C@H](C)C=C(C)[C@@H](O)[C@@H](OC)C(=O)[C@H](C)C[C@H](C)C=CC=CC=C1C
REPORTED: 3

Look up lowest phenotypically active concentration: N#Cc1c(C2CCNCC2)cc(-c2c(O)cccc2OCC2CC2)nc1N 9
